Molecular target: Human Cav2.2 channels (Homo sapiens, UniProt Q00975)
Construct: expressed in transfected cells
Sequence (Q00975 whole entry): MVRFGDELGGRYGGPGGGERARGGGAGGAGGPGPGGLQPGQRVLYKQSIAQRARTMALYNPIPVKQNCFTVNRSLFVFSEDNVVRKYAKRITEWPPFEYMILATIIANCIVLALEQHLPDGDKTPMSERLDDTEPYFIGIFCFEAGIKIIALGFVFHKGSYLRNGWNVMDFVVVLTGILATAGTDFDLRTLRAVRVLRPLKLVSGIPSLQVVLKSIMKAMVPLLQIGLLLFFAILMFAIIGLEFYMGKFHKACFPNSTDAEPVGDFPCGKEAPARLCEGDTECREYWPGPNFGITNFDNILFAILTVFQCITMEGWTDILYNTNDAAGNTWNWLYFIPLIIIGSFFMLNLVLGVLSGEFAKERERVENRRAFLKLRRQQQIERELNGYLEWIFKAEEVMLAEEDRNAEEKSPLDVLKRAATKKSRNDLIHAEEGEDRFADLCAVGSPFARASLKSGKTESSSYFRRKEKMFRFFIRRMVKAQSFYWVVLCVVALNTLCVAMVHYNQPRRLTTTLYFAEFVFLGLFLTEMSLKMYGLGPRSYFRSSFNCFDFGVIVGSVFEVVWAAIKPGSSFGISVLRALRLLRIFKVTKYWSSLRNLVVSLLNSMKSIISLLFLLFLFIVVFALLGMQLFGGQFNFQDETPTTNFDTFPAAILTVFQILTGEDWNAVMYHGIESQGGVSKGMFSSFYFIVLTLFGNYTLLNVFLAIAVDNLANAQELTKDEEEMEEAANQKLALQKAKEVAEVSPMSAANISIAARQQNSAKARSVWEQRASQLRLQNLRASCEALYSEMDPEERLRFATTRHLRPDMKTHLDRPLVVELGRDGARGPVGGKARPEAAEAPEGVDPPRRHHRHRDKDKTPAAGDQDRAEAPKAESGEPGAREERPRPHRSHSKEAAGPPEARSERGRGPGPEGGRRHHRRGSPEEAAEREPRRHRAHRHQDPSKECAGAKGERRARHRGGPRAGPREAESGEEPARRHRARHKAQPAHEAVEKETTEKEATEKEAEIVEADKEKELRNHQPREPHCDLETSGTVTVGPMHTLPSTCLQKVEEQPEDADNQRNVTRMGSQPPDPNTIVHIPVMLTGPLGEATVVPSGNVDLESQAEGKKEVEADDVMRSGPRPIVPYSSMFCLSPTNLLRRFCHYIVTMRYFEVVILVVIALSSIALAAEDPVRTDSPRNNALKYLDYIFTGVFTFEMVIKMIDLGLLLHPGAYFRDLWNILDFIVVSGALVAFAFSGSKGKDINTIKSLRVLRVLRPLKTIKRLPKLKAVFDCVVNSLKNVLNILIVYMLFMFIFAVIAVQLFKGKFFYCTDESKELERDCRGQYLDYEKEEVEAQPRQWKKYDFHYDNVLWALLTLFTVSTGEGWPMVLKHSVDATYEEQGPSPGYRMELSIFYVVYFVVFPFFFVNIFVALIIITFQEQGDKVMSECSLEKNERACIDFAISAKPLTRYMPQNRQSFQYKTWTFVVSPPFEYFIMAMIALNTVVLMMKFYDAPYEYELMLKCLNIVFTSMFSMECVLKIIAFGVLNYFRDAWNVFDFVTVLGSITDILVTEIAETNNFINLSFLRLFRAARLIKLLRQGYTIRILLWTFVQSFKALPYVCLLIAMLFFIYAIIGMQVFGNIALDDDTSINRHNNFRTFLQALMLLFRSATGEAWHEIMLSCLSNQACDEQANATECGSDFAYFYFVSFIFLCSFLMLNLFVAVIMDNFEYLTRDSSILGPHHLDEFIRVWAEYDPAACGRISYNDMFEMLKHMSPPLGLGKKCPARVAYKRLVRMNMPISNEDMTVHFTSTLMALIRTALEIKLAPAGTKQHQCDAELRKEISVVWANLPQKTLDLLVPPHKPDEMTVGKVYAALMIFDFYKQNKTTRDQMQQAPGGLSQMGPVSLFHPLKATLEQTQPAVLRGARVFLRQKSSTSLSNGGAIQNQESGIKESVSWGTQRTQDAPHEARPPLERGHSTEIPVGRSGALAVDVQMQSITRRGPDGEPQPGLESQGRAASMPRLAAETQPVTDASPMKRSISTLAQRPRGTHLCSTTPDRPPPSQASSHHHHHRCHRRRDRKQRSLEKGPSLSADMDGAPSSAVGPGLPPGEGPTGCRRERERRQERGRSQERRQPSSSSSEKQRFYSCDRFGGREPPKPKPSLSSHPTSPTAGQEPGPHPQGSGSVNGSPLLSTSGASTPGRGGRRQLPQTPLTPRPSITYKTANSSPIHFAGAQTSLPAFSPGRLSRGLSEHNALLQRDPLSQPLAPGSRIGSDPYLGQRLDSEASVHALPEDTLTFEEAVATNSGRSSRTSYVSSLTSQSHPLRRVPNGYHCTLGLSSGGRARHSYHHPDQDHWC
Sequence (P54289 25-956 partner limits assumed): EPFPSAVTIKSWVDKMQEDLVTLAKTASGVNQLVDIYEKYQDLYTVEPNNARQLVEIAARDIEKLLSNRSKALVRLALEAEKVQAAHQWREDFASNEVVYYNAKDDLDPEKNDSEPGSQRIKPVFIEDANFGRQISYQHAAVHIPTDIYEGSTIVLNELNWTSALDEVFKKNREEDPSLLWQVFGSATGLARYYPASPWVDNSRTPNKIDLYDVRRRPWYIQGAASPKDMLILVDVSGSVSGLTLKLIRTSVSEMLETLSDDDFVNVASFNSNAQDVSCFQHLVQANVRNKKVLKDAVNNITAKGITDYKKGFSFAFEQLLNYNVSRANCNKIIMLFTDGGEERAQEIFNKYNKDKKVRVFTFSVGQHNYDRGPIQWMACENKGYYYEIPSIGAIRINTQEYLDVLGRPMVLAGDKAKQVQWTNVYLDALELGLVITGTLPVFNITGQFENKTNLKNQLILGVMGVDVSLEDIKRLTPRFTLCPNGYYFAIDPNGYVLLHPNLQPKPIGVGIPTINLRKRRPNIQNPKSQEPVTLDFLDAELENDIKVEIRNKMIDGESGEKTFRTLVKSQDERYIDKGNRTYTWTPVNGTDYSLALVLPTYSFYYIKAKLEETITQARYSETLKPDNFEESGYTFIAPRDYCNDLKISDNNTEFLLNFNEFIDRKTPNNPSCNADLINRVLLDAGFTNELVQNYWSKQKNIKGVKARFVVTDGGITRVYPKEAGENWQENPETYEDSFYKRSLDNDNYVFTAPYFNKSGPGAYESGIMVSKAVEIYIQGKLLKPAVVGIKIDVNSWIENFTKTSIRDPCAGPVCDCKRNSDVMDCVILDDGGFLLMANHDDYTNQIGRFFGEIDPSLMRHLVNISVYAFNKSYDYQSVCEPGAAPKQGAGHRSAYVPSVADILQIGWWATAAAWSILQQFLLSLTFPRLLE
Sequence (P54289 957-1103 partner limits assumed): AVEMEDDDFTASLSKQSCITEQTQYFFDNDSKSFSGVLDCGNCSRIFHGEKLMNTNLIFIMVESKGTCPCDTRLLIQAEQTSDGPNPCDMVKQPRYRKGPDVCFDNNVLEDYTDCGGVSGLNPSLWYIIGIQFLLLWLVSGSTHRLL
Sequence (P54284 whole entry partner): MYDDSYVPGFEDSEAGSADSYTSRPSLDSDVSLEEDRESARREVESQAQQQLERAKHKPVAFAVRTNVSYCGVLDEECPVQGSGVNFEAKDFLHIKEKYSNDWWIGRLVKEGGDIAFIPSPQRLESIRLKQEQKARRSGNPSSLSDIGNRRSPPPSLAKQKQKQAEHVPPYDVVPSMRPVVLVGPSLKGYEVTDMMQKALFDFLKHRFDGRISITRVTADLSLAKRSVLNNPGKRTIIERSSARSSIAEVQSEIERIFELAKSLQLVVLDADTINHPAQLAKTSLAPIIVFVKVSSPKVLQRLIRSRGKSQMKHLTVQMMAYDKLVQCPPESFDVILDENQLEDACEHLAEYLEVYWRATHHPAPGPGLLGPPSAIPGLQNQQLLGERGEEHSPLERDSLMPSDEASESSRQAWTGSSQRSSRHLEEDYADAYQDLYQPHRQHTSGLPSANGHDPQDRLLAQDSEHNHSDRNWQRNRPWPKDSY
Test: Block of Cav2.2 (N-type) channels expressed in HEK293 cells
Format: cell-based
Settings: HEK293; read-out: Cav 2.2 % Inh @ 10 μM
Rule: class 1 for inhibition at 10 µM not less than 90%, class 0 for anything less.

Reference set, count: 4
>  <molecule smiles>
CC(C)(C)c1cc(N2CCN(C(=O)c3cc(F)cc(C(F)(F)F)c3)CC2)cc(C(C)(C)C)c1

>  <assigned class>
class 0

$$$$
>  <molecule smiles>
CC(C)(C)C(=O)Nc1ncccc1C(=O)N1CCN(c2cc(C(C)(C)C)cc(C(C)(C)C)c2)CC1

>  <assigned class>
class 1

$$$$
>  <molecule smiles>
CC(C)(C)c1cc(N2CCN(C(=O)c3ccccc3)CC2)cc(C(C)(C)C)c1

>  <assigned class>
class 1

$$$$
>  <molecule smiles>
CCCc1cc(C(=O)N2CCN(c3cc(C(C)(C)C)cc(C(C)(C)C)c3)CC2)sc1C

>  <assigned class>
class 0

$$$$

Q: Threshold query (inhibition at 10 µM >= 90%) on CC(C)(C)c1cc(N2CCN(C(=O)c3ccc(S(=O)(=O)C(C)(C)C)s3)CC2)cc(C(C)(C)C)c1
A: class 0

Q: Continue with Cc1cccc(C(=O)N2CCN(c3cc(C(C)(C)C)cc(C(C)(C)C)c3)CC2)n1
A: class 1
